Cited source: ChEMBL document CHEMBL3507680

test: Human HepG2 cell viability assay in 384 well format; format: toxicity, cell-based; parameters: dose 125 nL, time 70.5 hour; concentration not given beside the values; conditions: HepG2 cells, read-out: Inhibition
Give cytotoxicity at 70.5 h for every item shown.
Answers are plain numbers, in %.

The cases that follow already have their cytotoxicity at 70.5 h on record.
Cc1nccc([C@H]2C[C@@H]3CCN(S(=O)(=O)N(C)C)C[C@H]3O2)n1
-10.6
O=C(C1CCC1)N1CCC2(CCCN2CC2CC2)CC1
-0.744
CC(NC(=O)N(C)Cc1cnn(C)c1)c1nncn1C (centres undefined)
-2.09
N#CC1CCCN(S(=O)(=O)c2ccc(C(=O)NCC(F)F)cc2)C1 (centres undefined)
3.7

Below are 3 compounds. Give each one its cytotoxicity at 70.5 h.
1. Cc1cccc(C)c1-c1cc(NCCO)nc2[nH]ccc12
2. CC(C)(C)C(=O)NCc1cnn2ccccc12
3. CCOc1ccc(C(=O)N2CCCC(n3nc(C)nc3C)C2)cc1 (centres undefined)

-11.1
-6.45
1.39

Below are 2 compounds. Give each one its cytotoxicity at 70.5 h.
1. COc1ccccc1OC1CCN(C(=O)c2cnc(C)s2)CC1
2. CC(C)OCCCNC(=O)c1cccnc1N1CCOCC1

-4.88
39.8

Below are 4 compounds. Give each one its cytotoxicity at 70.5 h.
1. Cc1cc(-n2cncn2)ccc1C(=O)N(CC(F)(F)F)C(C)C
2. CC(=O)N1CCn2c(nnc2C2CCCCN2C(C)=O)C1 (centres undefined)
3. CN(Cc1cnc2ccccc2c1)C(=O)C(c1ccccc1F)N(C)C (centres undefined)
4. CN(Cc1cccc(F)c1)C(=O)CN1CCCC(Cn2cncn2)C1 (centres undefined)

[-7.81, -4.85, -10.3, 15.6]

Below are 2 compounds. Give each one its cytotoxicity at 70.5 h.
1. CCn1cc(CN2CCCN(C(=O)CCc3cnn(C)c3)CC2)cn1
2. O=C1COC2(CCN(c3ncccn3)CC2)CN1Cc1ccccn1

[-11.5, -5.98]

Below are 5 compounds. Give each one its cytotoxicity at 70.5 h.
1. CCn1cc(Cl)c(C(=O)NCCCO)n1
2. COCCc1noc(CN2CCCC2c2c(C)nn(C)c2C)n1 (centres undefined)
3. CCC[C@@H]1CN(C(=O)c2ccccc2-c2ncc[nH]2)C[C@H]1N(C)C
4. CCOc1cc(C)nc(N2CCN(C(=O)Cn3cc(C)cn3)CC2)n1
5. COc1ccccc1-c1cc(C(=O)N(C)C)c2cnn(C)c2n1

[-3.76, -8.48, -2.55, -0.0989, -11.2]

Below are 4 compounds. Give each one its cytotoxicity at 70.5 h.
1. Cc1cc(C)c2c(NCCC34CCCN3CCC4)ncnc2n1
2. O=C(NCCCC(=O)N1CCN(CC2CC2)c2ccccc21)C1CC1
3. CCn1cnnc1CNC(=O)N1CCN(Cc2ccsc2)CC1
4. Cc1csc(Nc2cc(C3CN(C(C)C)C3)nc(C)n2)n1

-3.78
-7.6
2.69
-3.73
